# tested.target: Bcl-xL, Q07817
# Sequence (Q07817 1-209): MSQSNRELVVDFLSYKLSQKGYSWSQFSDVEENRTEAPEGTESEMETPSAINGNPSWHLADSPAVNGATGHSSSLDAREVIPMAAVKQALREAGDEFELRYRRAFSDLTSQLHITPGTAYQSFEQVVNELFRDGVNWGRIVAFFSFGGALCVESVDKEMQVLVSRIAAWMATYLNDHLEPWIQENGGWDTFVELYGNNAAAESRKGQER
# experimental.protocol: peptide SPOT array, c-Myc-tagged receptor at 1 uM or 100 nM, anti-c-Myc-Cy3
endpoint.name: SPOT signal as a fraction of Bim BH3's signal on the same receptor and array

Solved cases below.
binder="MSLFLRVVFSFTMFGDLFEEEYSTVS [USP40]" recorded_number=0.07
binder="DFMGRTFAKPDVKMADEAYCPPRFPP [OTOF]" recorded_number=0.03
binder="KNIAGALAFWMANASELLNFIKQDRD [MLLT4]" recorded_number=0.03

P. LTKAERLSKELLQCGRIIKEEWIEIE [TTC23]
Q. ELLYGIWSNCLGLISDSFHMFFDSTA [SLC30A7]
## Task Between the two listed entries P and Q , which has its SPOT signal as a fraction of Bim BH3's signal on the same receptor and array at the higher number? The response must carry the label of the picked entry.
## Result Q
